Listing: exon inclusion enrichment index of selected variants
B1: mRNA-splicing (parent)
chain: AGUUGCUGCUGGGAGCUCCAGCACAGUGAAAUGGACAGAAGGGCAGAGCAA

- Variants of: B1
- ASSAY: exon inclusion enrichment index; higher = more inclusion; WT1 exon 5 minigene, HEK293
PROPERTY_MEASURED: exon inclusion enrichment index

# SEQUENCE_CHANGE, QUANTITATIVE_RESULT
data = [
    ("G5A U7C G8C C9U U10C", 1.27),
    ("C6A U7A C9A U10A A14G", 0.618),
    ("C6A U7C C9A U10C C19A A20U", 2.07),
    ("G5C C6U G8C C9U U10C C18U", 1.62),
    ("G5C C6A U7C G8A U10A G28A A29G", 0.0244),
    ("G5C C6U G8C C9U U10C A14C", 1.3),
    ("U3G C6A U7C C9A U10C", 0.785),
    ("G5C C6G U7C U10C U32C", 4.75),
    ("G5C C6A U7C G8A U10A C18G C19A", 0.143),
    ("G5C C6U G8C C9U U10C A47C G48C", 1.78),
    ("C6A U7A C9A U10A A14C G15C", 0.452),
    ("G5C C6U G8C C9U U10C A23G", 2.93),
    ("G5A C6U U7A G8U C9A A40G", 0.0627),
    ("G5C C6U U7G G8A C9U U10C", 1.49),
    ("G5A U7C G8A U10C U17G C18A", 2.15),
]
